- Test system: 293 cells
- method_description: Transient transfection LacZ reporter assay of ribozyme self-cleavage
- Assay type: cell-based
- measurement_parameters: pMD LacZ vector, functional vs inactive rz, fold=1 means no effect
Fold (suppression in reporter gene expression relative to the vector with inactive rz) values for the molecules below.
value_type: Fold (suppression in reporter gene expression relative to the vector with inactive rz) (fold)

molecule="Cricket hammerhead: hammerhead Pst-3 rz from the Dolichopoda cave cricket, SEQ ID NO: 1 (nucleic acid, expressed or natural sequence) AUGUGUGUUCCCUCUGCCCCGCUGAUGAGGUCGGGGAGACCGAAAGGGUCAACUCUACGGGGCUAUUACAUGCAAU" units_symbol=fold measured_value=13
molecule="Schisto hammerhead: original hammerhead Sml rz of Schistosoma mansoni lacking loop III, SEQ ID NO: 2 (nucleic acid, expressed or natural sequence) CUGAGAUGCAGGUACAUCCAGCUGACGAGUCCCAAAUAGGACGAAACGCGCGUCCUGGAUUCCACUGCUAUCCAC" units_symbol=fold measured_value=1
molecule="TRSV hammerhead: naturally occurring ribozyme, SEQ ID NO: 53 (nucleic acid, expressed or natural sequence) AUACCCUGUCACCGGAUGUGCUUUCCGGUCUGAUGAGUCCGUGAGGACGAAACAGGACUGUC" units_symbol=fold measured_value=1
molecule="N27: Sml with tetraloop 5′-UUCG-3′ grafted onto extended stem III, SEQ ID NO: 3 (nucleic acid, expressed or natural sequence) CUGAGAUGCAGGUACAUCCAGCUGACGAGUCCCAAAUAGGACGAAACGCCUUCGGGCGUCCUGGAUUCCACUGCUAUCCAC" units_symbol=fold measured_value=19

Where do these numbers come from? They come from patent US10233447B2.
